- Protocol details: Pharmacokinetic study in rats after single oral dose of volatile oil of Acorus tatarinowii Schott (GC-MS/SIM of plasma)
- Experimental context: male, Sprague-Dawley, rat, plasma, po, 0.2 g/kg
Measurement type: Cmax (ng/mL)

C=CCc1ccc(OC)c(OC)c1 | 21

###

- Protocol details: Pharmacokinetic study in rats after single oral dose of volatile oil of Acorus tatarinowii Schott (GC-MS/SIM of plasma)
- Experimental context: male, Sprague-Dawley, rat, plasma, po, 0.2 g/kg
Measurement type: Tmax (min)

C=CCc1ccc(OC)c(OC)c1 [Methyl Eugenol, Methyl eugenol] | 10

###

- Protocol details: Pharmacokinetic study in rats after single oral dose of volatile oil of Acorus tatarinowii Schott (GC-MS/SIM of plasma)
- Experimental context: male, Sprague-Dawley, rat, plasma, po, 0.2 g/kg
Measurement type: AUC(0-t) (ng·h/mL)

C=CCc1ccc(OC)c(OC)c1 | 35.5

###

- Protocol details: Pharmacokinetic study in rats after single oral dose of volatile oil of Acorus tatarinowii Schott (GC-MS/SIM of plasma)
- Experimental context: male, Sprague-Dawley, rat, plasma, po, 0.2 g/kg
Measurement type: half-life (h)

C=CCc1ccc(OC)c(OC)c1 [Methyl Eugenol, Methyl eugenol] | 1.13
